system: HS-Sch-2; assay: relative IC50 (inflection point of fitted dose-response curve, CellTiter-Glo viability, 72 h; top asymptote may be below 50% inhibition); higher = less potent
PARAMETER: relative IC50

> print(dat)
                                   molecule  target.or.system   result
1  C/C(=C\c1csc(C)n1)[C@@H]1C[C@@H]2O[C@]2(C)CCC[C@H](C)[C@H](O)[C@@H](C)C(=O)C(C)(C)[C@@H](O)CC(=O)N1 [Ixabepilone]          HS-Sch-2   313 nM
2  O=C(Nc1c[nH]nc1-c1nc2ccc(CN3CCOCC3)cc2[nH]1)NC1CC1 [AT9283]          HS-Sch-2   332 nM
3  COc1cc2nccc(Oc3ccc(NC(=O)Nc4cc(C)on4)c(Cl)c3)c2cc1OC [Tivozanib]          HS-Sch-2  3870 nM
4  COC[C@H](NC(=O)c1cnc(C)s1)C(=O)N[C@@H](COC)C(=O)N[C@@H](Cc1ccccc1)C(=O)[C@@]1(C)CO1 [Oprozomib]          HS-Sch-2  16.7 nM
